- target_of_assay: T1, full-length human Tau (flTau) (human, UniProt P10636-8 1-441)
- T1 construct: range 1-441; bought (SignalChem); also called human Tau-441
- assay_text: SPR, hybridoma Ab on anti-IgG chip, flTau analyte
pKd: −log10 of the molar value.

binder	pKd
125B11-H3 (antibody, mouse IgG2a, V domains shown, also called 125B1-H3) VH: EVKLEESGGGLVQPGGSMKLSCVASRFIFSNYWMNWVRQSPEKGLEWVAQIRLKSDNYATHYAESVKGRFTISRDDSKSSVYLQMNNLRAEDTGIYYCTGGTTYWGQGTTLTVSS VL: DIVMTQSQKFLSTSVGDRVNITCKASQNVGTAVAWYQQKPGQSPGLLIYSASIRYTGVPDRFTGNGSGTDFTLTISDMQSEDLADYFCQQFRTYPYTFGGGTKLEIK	8.22
19H6-F7 (antibody, mouse IgG2a, V domains shown) VH: EVQLVESGGDLVKPGGSLKLSCAASGFTFSSYGMSWVRQTPDKRLEWVATISSGGTYTYYPDSVKGRFTISRDNAKNTLYLQMSSLKSEDTAMYYCAPSYDGAMDYWGQGTSVTVSS VL: DVLMTQTPLSLPVSLGDQASISCRSSQSIVHSNGNTYLEWYLQKPGQSPKLLIYKVSNRFSGVPDRFSGSGSGTDFTLKISRVEAEDLGVYYCFQGSLVPWTFGGGTKLEIK	7.41
